Exercise: for every item that follows, state its recorded AC50.
Target: human PAH with the R408W mutation (A375 R408W cells) (Homo sapiens, UniProt P00439, R408W)
Construct: expressed in transfected cells
Sequence (P00439 1-452 R408W): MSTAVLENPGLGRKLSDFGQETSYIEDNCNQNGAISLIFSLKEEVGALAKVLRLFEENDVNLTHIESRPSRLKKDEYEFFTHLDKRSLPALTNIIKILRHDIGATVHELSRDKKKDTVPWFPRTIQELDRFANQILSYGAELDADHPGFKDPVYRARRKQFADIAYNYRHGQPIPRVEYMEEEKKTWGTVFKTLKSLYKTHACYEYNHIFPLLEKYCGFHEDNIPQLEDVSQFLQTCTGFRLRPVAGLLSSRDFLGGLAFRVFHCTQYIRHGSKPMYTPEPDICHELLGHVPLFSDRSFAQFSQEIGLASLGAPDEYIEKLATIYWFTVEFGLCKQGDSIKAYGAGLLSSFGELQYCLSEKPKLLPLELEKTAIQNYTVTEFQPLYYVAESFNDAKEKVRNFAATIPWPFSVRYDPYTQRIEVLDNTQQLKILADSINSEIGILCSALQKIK
Experiment: Cell Based Phenylalanine Flux Assay
Conditions: A375 R408W cells; 24 hrs with compound, then 20 μM sepiapterin and 800 μM 13C9,15N-Phenylalanine for 4 hours; 13C-Tyrosine by LC-MS; average where tested multiple times

Q: Identify AC50 associated with the compound O=C(c1nnc(-c2ccc(F)cc2F)o1)N1CCc2[nH]cnc2[C@@H]1c1nc2cc(F)ccc2o1
Ans: 1000 to 5000 nM

Q: Identify AC50 associated with the compound Cc1cccc2oc([C@@H]3c4nc[nH]c4CCN3C(=O)c3nnc(-c4ccccn4)o3)nc12
Ans: ≤ 500 nM

Q: Identify AC50 associated with the compound CC(F)(F)c1ncoc1C(=O)N1CCc2[nH]cnc2[C@@H]1c1nc2c(F)cccc2o1
Ans: 1000 to 5000 nM

Q: Identify AC50 associated with the compound O=C(c1oc(-c2ccncn2)nc1C(F)F)N1CCc2[nH]cnc2[C@@H]1c1nc2cccc(F)c2o1
Ans: ≤ 500 nM

Q: Identify AC50 associated with the compound O=C(c1oc(-c2ccccn2)nc1C(F)(F)F)N1CCc2[nH]cnc2[C@H]1c1nc2cccc(F)c2o1
Ans: ≤ 500 nM

Q: Identify AC50 associated with the compound O=C(c1ocnc1C(F)F)N1CCc2[nH]cnc2[C@H]1c1nc2c(C(F)(F)F)cccc2o1
Ans: ≤ 500 nM

Q: Identify AC50 associated with the compound Cn1nc(Br)nc1C(=O)N1CCc2[nH]cnc2[C@@H]1c1nc2cccc(F)c2o1
Ans: 1000 to 5000 nM

Q: Identify AC50 associated with the compound COc1ccc(-c2nnc(C(=O)N3CCc4[nH]cnc4[C@@H]3c3nc4cc(C)ccc4o3)o2)nc1
Ans: 1000 to 5000 nM

Q: Identify AC50 associated with the compound Cc1ccc2nc([C@@H]3c4nc[nH]c4CCN3C(=O)c3oc(C(C)(C)O)nc3C)oc2c1
Ans: 500 to 1000 nM

Q: Identify AC50 associated with the compound COc1cccc2nc([C@@H]3c4nc[nH]c4CCN3C(=O)c3ccnn3C3CC3)oc12
Ans: ≤ 500 nM

Q: Identify AC50 associated with the compound CC(C)(O)c1ncc(C(=O)N2CCc3[nH]cnc3[C@H]2c2nc3cccc(F)c3o2)o1
Ans: 500 to 1000 nM

Q: Identify AC50 associated with the compound Cc1cc(C(=O)N2CCc3[nH]cnc3[C@H]2c2nc3ccccc3o2)n(C)n1
Ans: 1000 to 5000 nM

Q: Identify AC50 associated with the compound Cn1ccc(-c2nnc(C(=O)N3CCc4[nH]cnc4[C@@H]3c3nc4cc(F)ccc4o3)o2)n1
Ans: 1000 to 5000 nM

Q: Identify AC50 associated with the compound O=C(c1nnc(-c2cnn(C(F)F)c2)o1)N1CCc2[nH]cnc2[C@H]1c1nc2cccc(F)c2o1
Ans: ≤ 500 nM

Q: Identify AC50 associated with the compound Cc1nc([C@@H](C)O)oc1C(=O)N1CCc2[nH]cnc2[C@H]1c1nc2cc(F)ccc2o1
Ans: 1000 to 5000 nM

Q: Identify AC50 associated with the compound Cc1ncoc1C(=O)N1CCc2[nH]cnc2[C@H]1c1nc2cccc(F)c2o1
Ans: ≤ 500 nM

Q: Identify AC50 associated with the compound O=C(c1oc(-c2ccccn2)nc1C(F)F)N1CCc2[nH]cnc2[C@H]1c1nc2ccccc2o1
Ans: ≤ 500 nM

Q: Identify AC50 associated with the compound Cn1ccc(-c2nc(C(F)F)c(C(=O)N3CCc4[nH]cnc4[C@@H]3c3nc4cccc(F)c4o3)o2)n1
Ans: 500 to 1000 nM

Q: Identify AC50 associated with the compound COc1cccc2oc([C@@H]3c4nc[nH]c4CCN3C(=O)c3nnc(-c4ccccn4)o3)nc12
Ans: ≤ 500 nM

Q: Identify AC50 associated with the compound O=C(c1ocnc1C(F)F)N1CCc2[nH]cnc2[C@@H]1c1nc2c(OC(F)(F)F)cccc2o1
Ans: ≤ 500 nM

Q: Identify AC50 associated with the compound c1ccc2oc([C@H]3c4nc[nH]c4CN3c3nc4ccccc4o3)nc2c1 (single isomer, unassigned)
Ans: 1000 to 5000 nM

Q: Identify AC50 associated with the compound O=C(c1nnc(-c2ncccc2F)o1)N1CCc2[nH]cnc2[C@H]1c1nc2c(F)ccc(F)c2o1
Ans: ≤ 500 nM

Q: Identify AC50 associated with the compound Cc1cccc2nc([C@@H]3c4nc[nH]c4CCN3C(=O)c3cnco3)oc12
Ans: 500 to 1000 nM

Q: Identify AC50 associated with the compound Cc1cccc2nc([C@H]3c4nc[nH]c4CCN3C(=O)c3cnco3)oc12
Ans: 1000 to 5000 nM

Q: Identify AC50 associated with the compound O=C(c1nnc(-c2ccccn2)o1)N1CCc2[nH]cnc2[C@@H]1c1nc2cccc(F)c2o1
Ans: 500 to 1000 nM

Q: Identify AC50 associated with the compound CN(C)C(C)(C)c1nc(C(F)F)c(C(=O)N2CCc3[nH]cnc3[C@@H]2c2nc3cc(F)ccc3o2)o1
Ans: ≤ 500 nM

Q: Identify AC50 associated with the compound O=C(c1oc(-c2ccc(F)cn2)nc1C(F)F)N1CCc2[nH]cnc2[C@H]1c1nc2cc(F)ccc2o1
Ans: ≤ 500 nM

Q: Identify AC50 associated with the compound O=C(c1ocnc1C1CC1)N1CCc2[nH]cnc2[C@H]1c1nc2cc(F)ccc2o1
Ans: ≤ 500 nM

Q: Identify AC50 associated with the compound Cc1nc([C@H](C)O)oc1C(=O)N1CCc2[nH]cnc2[C@@H]1c1nc2ccc(F)cc2o1
Ans: ≥ 5000 nM

Q: Identify AC50 associated with the compound Cc1cc(F)cc2nc([C@H]3c4nc[nH]c4CCN3C(=O)c3ocnc3C(F)F)oc12
Ans: ≤ 500 nM

Q: Identify AC50 associated with the compound Cc1ccc2nc([C@@H]3c4nc[nH]c4CCN3C(=O)c3nnc(-c4cc[nH]n4)o3)oc2c1
Ans: 500 to 1000 nM
